Listed here: items and their measured IC50.
target_entity: 92 kDa gelatinase of human origin (Homo sapiens)
Sequence (P14780 94-707): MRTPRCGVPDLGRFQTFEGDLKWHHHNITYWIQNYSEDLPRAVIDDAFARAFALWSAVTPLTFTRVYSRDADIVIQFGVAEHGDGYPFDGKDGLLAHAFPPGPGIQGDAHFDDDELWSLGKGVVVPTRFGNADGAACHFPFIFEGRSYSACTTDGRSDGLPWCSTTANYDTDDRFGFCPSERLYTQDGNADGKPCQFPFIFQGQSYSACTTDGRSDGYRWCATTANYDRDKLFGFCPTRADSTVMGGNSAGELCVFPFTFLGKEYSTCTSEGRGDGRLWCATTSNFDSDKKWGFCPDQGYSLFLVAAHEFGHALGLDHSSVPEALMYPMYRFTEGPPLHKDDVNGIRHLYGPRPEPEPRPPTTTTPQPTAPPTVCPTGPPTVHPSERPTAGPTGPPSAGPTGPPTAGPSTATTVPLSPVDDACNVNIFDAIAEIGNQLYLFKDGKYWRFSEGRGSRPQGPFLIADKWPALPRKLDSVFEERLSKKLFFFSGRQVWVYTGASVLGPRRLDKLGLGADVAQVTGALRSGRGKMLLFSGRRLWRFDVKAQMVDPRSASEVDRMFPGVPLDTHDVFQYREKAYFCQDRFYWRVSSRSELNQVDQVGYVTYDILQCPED
method: Activity on gelatinase, radiomarked gelatin
Assay type: biochemical
conditions_used: test performed with radiomarked gelatin; read-out: C150 (nM) gelatinase 92 kDa*
recorded_endpoint: IC50 (nM)

INSERT INTO assay_data (smiles_str, unit_text, val) VALUES
  ('CSCCNC(=O)[C@H](Cc1ccc(Cl)cc1)NC(=O)[C@](O)(CC(C)C)[C@H](C)C(=O)NO', 'nM', 0.005),
  ('CNC(=O)[C@H](Cc1ccc(OC)cc1)NC(=O)[C@](O)(CC(C)C)[C@H](C)C(=O)NO', 'nM', 1),
  ('CNC(=O)[C@H](Cc1ccc(Cl)c(Cl)c1)NC(=O)[C@@](O)(CS)CC(C)C', 'nM', 70),
  ('COc1ccc(C[C@H](NC(=O)[C@](O)(CC(C)C)[C@H](C)C(=O)NO)C(=O)NCc2ccccc2)cc1', 'nM', 0.5);

----------
target_entity: collagenase of the human monocytic stock U937 (Homo sapiens)
Construct: the collagenase of the human monocytic stock U937; endogenous in cells; host or cells: U937 human monocytic cell line
Sequence (P03956 100-469): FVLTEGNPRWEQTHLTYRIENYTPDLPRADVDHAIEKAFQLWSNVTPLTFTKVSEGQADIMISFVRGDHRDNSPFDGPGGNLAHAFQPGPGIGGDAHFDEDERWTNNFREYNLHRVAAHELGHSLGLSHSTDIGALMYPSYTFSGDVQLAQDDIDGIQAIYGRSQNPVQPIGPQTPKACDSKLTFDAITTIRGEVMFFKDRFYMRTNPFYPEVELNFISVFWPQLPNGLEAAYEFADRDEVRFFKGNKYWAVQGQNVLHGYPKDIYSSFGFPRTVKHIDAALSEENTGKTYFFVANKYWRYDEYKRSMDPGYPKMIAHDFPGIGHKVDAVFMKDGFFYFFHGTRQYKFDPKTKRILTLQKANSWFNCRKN
method: Activity on collagenase
Format: biochemical
conditions_used: radiomarked collagen, 27° C., 16 hours; read-out: C150 (nM) collagenase
recorded_endpoint: IC50

INSERT INTO assay_data (molecule, val) VALUES
  ('CNC(=O)[C@H](Cc1ccc(Cl)c(Cl)c1)NC(=O)[C@](O)(CC(C)C)[C@H](C)C(=O)NO [Example 18]', '2 nM'),
  ('CNC(=O)[C@H](Cc1ccc(OC)cc1)NC(=O)[C@](O)(C(C)C)[C@H](C)C(=O)NO [Example 7]', '30 nM'),
  ('CC(C)C[C@@](O)(C(=O)N[C@@H](Cc1ccc(Cl)cc1)C(=O)NCC/C(N)=N/O)[C@H](C)C(=O)NO [Example 28]', '26 nM'),
  ('CNC(=O)[C@H](Cc1ccc(OC)cc1)NC(=O)[C@](O)(CC(C)C)[C@H](C)C(=O)NO [Example 1]', '5 nM'),
  ('CC(C)C[C@@](O)(C(=O)NC(Cc1ccc(Cl)cc1)C(=O)NCCN1CCOCC1)[C@H](C)C(=O)NO (stereo partly drawn) [Example 12b]', '22 nM'),
  ('COc1ccc(C[C@H](NC(=O)[C@](O)(CC(C)C)[C@H](C)C(=O)NO)C(=O)NCc2ccccc2)cc1 [Example 5]', '12 nM'),
  ('CSCCNC(=O)[C@H](Cc1ccc(Cl)c(Cl)c1)NC(=O)[C@](O)(CC(C)C)[C@H](C)C(=O)NO [Example 21]', '5 nM'),
  ('CNC(=O)[C@H](Cc1cccc(Cl)c1)NC(=O)[C@](O)(CC(C)C)[C@H](C)C(=O)NO [Example 22]', '2.4 nM'),
  ('CNC(=O)[C@H](Cc1ccc(Cl)c(Cl)c1)NC(=O)[C@](O)(CC(C)C)[C@H](O)C(=O)NO [Example 30]', '11 nM'),
  ('CNC(=O)[C@H](Cc1ccc(I)cc1)NC(=O)[C@](O)(CC(C)C)[C@H](C)C(=O)NO [Example 14]', '2 nM'),
  ('CNC(=O)[C@H](Cc1ccc(OC)cc1)NC(=O)[C@](O)(CC(C)C)[C@H](O)C(=O)NO [Example 29]', '26 nM'),
  ('CSCCNC(=O)[C@H](Cc1ccc(I)cc1)NC(=O)[C@](O)(CC(C)C)[C@H](C)C(=O)NO [Example 15]', '32 nM'),
  ('CNC(=O)[C@H](Cc1ccc(OC)cc1)NC(=O)[C@H](CC(C)C)[C@H](C)C(=O)NO [drawing 111, reference compound]', '5 nM'),
  ('CNC(=O)[C@@H](NC(=O)[C@](O)(CC(C)C)[C@H](C)C(=O)NO)C(C)(C)C [Example 2]', '18 nM'),
  ('CNC(=O)[C@H](Cc1ccc(Cl)cc1Cl)NC(=O)[C@](O)(CC(C)C)[C@H](C)C(=O)NO [Example 20]', '3.7 nM');
